Biological target: Flt3 kinase (Homo sapiens, UniProt P36888)
Construct: recombinant N-terminal 6×His-tagged Flt3 kinase domain construct expressed from baculovirus; 6xHis (N); made in house
Sequence (P36888 610-943 limits assumed): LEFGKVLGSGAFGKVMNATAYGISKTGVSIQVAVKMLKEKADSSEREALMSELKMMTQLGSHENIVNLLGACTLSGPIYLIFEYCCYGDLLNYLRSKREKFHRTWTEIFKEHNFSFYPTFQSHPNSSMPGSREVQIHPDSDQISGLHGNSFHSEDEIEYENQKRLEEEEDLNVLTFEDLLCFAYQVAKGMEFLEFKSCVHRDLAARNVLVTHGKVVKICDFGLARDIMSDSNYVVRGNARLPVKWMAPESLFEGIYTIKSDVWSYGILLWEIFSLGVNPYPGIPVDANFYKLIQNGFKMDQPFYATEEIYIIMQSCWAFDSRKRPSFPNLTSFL
Assay: Flt3 kinase assay (33P incorporation into Poly(Glu-Tyr))
Assay type: biochemical
Settings: 100 nM test compound; read-out: Inhibition at 100 nM (%) Flt-3
Experimental: Inhibition of Flt3 kinase activity by compounds disclosed herein was quantified by measuring the amount of [^33P] incorporated into the substrate in the presence of a test compound. […] The plate was then sealed and counted using a TopCount scintillation detector (PerkinElmer). The percentage of inhibition rate of the test compound was calculated by dividing the retained radioactivity of the test sample with the retained radioactivity of the control sample and shown in Table 3.
Quick rule for you: inhibition at 0.1 µM at 10% or higher means t, lower means f.

These recorded examples may help you get a feel for the data.
compound	label
CCOC(=O)CCc1c(/C=C2\C(=O)Nc3ccc(F)cc32)[nH]c2c1C(=O)CCC2 [DCB-70053]	t
O=C(O)CCc1c(/C=C2\C(=O)Nc3cc(Br)ccc32)[nH]c2c1C(=O)CCC2 [DCB-70133]	f
CCOC(=O)CCc1c(/C=C2\C(=O)Nc3ccc(NC(=O)Nc4cccc5ccccc45)cc32)[nH]c2c1C(=O)CCC2 [DCB-70129]	t

Q) Could you please find out whether CCOC(=O)CCc1c(/C=C2\C(=O)Nc3cc(-c4cc5ccccc5s4)ccc32)[nH]c2c1C(=O)CCC2 [DCB-70079] has inhibition at 0.1 µM that meets 10% or exceeds it?
A) f

Q) Field entry: CN(C)S(=O)(=O)c1ccc2c(c1)/C(=C/c1[nH]c3c(c1CCC(=O)O)C(=O)CCC3)C(=O)N2 [DCB-70121]
A) t

###

Target: Aurora B kinase (Homo sapiens)
Construct: purchased Cell signaling
Sequence (Q96GD4 whole entry): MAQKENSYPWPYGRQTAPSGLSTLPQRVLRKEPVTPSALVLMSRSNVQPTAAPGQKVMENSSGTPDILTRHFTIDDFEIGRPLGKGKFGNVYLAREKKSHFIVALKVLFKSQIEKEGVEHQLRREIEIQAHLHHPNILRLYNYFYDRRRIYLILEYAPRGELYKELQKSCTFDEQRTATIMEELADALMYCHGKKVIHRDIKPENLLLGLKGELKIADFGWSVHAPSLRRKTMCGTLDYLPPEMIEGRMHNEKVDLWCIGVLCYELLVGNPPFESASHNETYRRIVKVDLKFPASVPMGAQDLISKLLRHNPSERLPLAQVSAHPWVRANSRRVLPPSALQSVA
Assay: Aurora B kinase assay ([γ-33P]ATP, CHOCKtide substrate)
Type: biochemical
Conditions: 1.0 μM test compound
Measured inhibition at 1 µM, listed per entry.
Number only, in %; omit the unit.

Q) I would be grateful if you could share the reported inhibition at 1 µM for `CCOC(=O)CCc1c(/C=C2\C(=O)Nc3ccc(NS(=O)(=O)c4cc(F)cc(F)c4)cc32)[nH]c2c1C(=O)CCC2` .
A) 84

Q) Field entry: `CCOC(=O)CCc1c(/C=C2\C(=O)Nc3cc(-c4cc(F)cc(F)c4)ccc32)[nH]c2c1C(=O)CCC2`
A) 13.2

###

Measured inhibition at 1 µM, listed per entry.
Biological target: Aurora B kinase (Homo sapiens)
Construct: purchased Cell signaling
Experiment: Aurora B kinase assay ([γ-33P]ATP, CHOCKtide substrate)
Type: biochemical
Settings: 1.0 μM test compound
Number only, in %; omit the unit.

Worked examples, 4 compounds total:
structure as smiles	subject of test	measured
CCS(=O)(=O)c1ccc2c(c1)/C(=C/c1[nH]c3c(c1CCC(=O)O)C(=O)CCC3)C(=O)N2	Aurora B kinase (Homo sapiens)	7
CCOC(=O)CCc1c(/C=C2\C(=O)Nc3ccc(OC)cc32)[nH]c2c1C(=O)CCCC2	Aurora B kinase (Homo sapiens)	2.8
CCOC(=O)CCc1c(/C=C2\C(=O)Nc3ccc(/N=C/c4ccc(F)c(C(F)(F)F)c4)cc32)[nH]c2c1C(=O)CCC2	Aurora B kinase (Homo sapiens)	1.9
O=C(O)CCc1c(/C=C2\C(=O)Nc3ccc(-c4ccc(F)cc4)cc32)[nH]c2c1C(=O)CCC2	Aurora B kinase (Homo sapiens)	1.8

In the following, a different compound is considered.
Q) I would be grateful if you could share the reported inhibition at 1 µM for `CCOC(=O)CCc1c(/C=C2\C(=O)Nc3ccc(S(=O)(=O)Cc4c(Cl)cccc4Cl)cc32)[nH]c2c1C(=O)CCC2` .
A) 16.3
